Measurement record for FLT3 kinase (Homo sapiens, UniProt P36888); quantity recorded: IC50.
Only the number, expressed in nM, is required.

I would be grateful if you could share the reported IC50 for Cc1cc(-c2nc(C(=O)Nc3cc4cn(C5CC6CCC(C5)N6C)nc4cc3C(C)(C)O)co2)ccn1 (stereo not shown) [II-101] .
0.48

Would you mind doing COc1cc2nc(C3CCNCC3)cn2cc1NC(=O)c1coc(-c2ccnc(C)c2)n1 [II-15C] as well?
1.3

Would you mind doing Cc1cc(-c2nc(C(=O)Nc3cc4cn(CCC(C)(C)O)nc4cc3N3CCC(O)C3)co2)ccn1 (stereo not shown) [II-102] as well?
0.85

Would you mind doing COc1cc2nn(C3CCNCC3)cc2cc1NC(=O)c1nc(-c2ccnc(C)c2)c[nH]1 [II-5C] as well?
0.19

Attribution: patent US12195479B2
